# Experimental target: NOD2 (Homo sapiens, UniProt Q9HC29)
# Sequence (Q9HC29 whole entry): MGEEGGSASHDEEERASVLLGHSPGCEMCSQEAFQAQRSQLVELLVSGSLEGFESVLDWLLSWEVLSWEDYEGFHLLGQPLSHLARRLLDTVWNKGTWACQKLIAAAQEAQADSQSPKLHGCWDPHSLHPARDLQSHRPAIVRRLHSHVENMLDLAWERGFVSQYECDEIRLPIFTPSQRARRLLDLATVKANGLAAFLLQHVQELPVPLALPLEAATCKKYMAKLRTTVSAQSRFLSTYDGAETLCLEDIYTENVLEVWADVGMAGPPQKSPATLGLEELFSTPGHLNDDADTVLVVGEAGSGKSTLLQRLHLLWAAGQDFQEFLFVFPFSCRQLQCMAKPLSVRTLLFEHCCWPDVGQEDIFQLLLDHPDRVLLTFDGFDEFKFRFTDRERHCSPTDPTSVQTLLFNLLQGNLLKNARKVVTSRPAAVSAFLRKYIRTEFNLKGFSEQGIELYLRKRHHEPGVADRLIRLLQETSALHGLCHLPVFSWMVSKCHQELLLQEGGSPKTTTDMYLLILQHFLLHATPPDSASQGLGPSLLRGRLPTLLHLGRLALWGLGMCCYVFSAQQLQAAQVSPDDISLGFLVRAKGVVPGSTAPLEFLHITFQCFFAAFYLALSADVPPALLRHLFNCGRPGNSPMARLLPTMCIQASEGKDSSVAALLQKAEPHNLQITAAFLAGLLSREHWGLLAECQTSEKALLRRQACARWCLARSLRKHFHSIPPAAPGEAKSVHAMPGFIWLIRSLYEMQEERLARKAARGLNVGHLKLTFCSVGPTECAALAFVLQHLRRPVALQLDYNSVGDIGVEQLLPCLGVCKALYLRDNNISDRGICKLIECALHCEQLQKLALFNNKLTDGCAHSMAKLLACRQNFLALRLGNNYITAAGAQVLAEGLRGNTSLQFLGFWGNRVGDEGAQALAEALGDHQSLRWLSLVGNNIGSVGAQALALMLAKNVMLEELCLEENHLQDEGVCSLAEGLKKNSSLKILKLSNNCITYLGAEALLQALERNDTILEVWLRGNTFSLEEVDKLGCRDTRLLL
# Protocol description: Microscale thermophoresis (MST) binding to purified NOD2-GFP
# Condition details: Fig 6E, one representative experiment; read-out: Kd (NOD2/ligand)
Readout label: Kd (µM)
Express your answer in µM, writing the number without its unit.

Kd measured on CCCCCCCCCCCCC/C=C/[C@@H](O)[C@@H](N)COP(=O)(O)O [S1P, sphingosine‐1‐phosphate] = 5.36

---

# Experimental target: NOD1 H517A (Homo sapiens, UniProt Q9Y239, H517A)
# Construct: made in house
# Sequence (Q9Y239 whole entry H517A): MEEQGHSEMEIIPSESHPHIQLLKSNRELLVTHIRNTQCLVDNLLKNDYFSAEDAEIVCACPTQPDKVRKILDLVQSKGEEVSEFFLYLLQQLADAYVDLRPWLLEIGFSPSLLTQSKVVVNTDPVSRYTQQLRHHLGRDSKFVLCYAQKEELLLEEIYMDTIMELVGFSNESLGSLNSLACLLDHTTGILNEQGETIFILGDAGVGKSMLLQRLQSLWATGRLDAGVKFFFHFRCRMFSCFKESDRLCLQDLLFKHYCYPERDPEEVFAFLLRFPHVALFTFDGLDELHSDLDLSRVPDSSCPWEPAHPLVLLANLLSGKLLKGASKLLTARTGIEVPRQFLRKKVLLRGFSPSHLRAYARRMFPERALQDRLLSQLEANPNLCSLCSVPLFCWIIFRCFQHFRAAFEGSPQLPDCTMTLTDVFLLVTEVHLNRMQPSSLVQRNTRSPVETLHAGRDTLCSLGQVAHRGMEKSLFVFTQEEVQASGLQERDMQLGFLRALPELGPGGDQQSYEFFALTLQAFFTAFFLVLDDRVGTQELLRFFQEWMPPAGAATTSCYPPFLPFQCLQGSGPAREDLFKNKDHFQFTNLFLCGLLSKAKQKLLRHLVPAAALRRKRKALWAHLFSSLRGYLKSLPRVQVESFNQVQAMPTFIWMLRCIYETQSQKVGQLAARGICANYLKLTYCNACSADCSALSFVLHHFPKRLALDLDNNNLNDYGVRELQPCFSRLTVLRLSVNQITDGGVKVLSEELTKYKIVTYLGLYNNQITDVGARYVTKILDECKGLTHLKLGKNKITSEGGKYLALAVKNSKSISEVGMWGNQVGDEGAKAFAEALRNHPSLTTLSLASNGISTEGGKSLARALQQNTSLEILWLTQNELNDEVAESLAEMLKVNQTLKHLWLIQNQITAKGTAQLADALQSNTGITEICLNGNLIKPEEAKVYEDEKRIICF
# Protocol description: MST binding to purified NOD1 H517A-GFP
# Condition details: Kd value of NOD1 H517A with S1P
pKd: −log10 of the molar value.
Readout label: pKd

The reported pKd of the compound CCCCCCCCCCCCC/C=C/[C@@H](O)[C@@H](N)COP(=O)(O)O [S1P, sphingosine‐1‐phosphate] was ~4.82
